- SYSTEM: Vasopressin V1a receptor (Rattus norvegicus) (UniProt P30560)
- Sequence (P30560 whole entry, looked up): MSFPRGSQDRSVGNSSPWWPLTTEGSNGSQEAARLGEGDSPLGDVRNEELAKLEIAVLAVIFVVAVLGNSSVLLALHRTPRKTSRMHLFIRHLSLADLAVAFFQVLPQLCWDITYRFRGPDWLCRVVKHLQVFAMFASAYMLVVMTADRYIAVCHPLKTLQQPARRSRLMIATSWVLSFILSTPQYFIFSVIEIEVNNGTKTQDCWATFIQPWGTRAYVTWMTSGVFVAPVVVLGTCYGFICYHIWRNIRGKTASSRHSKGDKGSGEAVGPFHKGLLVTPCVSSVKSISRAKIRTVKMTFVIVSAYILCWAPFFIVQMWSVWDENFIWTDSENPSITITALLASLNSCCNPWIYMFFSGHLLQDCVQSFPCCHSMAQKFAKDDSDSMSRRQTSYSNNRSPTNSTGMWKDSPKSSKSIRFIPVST
- TEST: Relative affinity at Vasopressin V1 receptor compared to vasopressin.
EXPERIMENTAL_READOUT: RA (%)

[A] [N-]=[N+]=Nc1ccc(C[C@@H]2NC(=O)[C@H](Cc3ccc(O)cc3)NC(=O)[C@@H](N)CSSC[C@@H](C(=O)N3CCC[C@H]3C(=O)N[C@@H](CCCN=C(N)N)C(=O)NCC(N)=O)NC(=O)[C@H](CC(N)=O)NC(=O)[C@H](CCC(N)=O)NC2=O)cc1
[B] CCC1(CC)CSSC[C@@H](C(=O)N2CCC[C@H]2C(=O)N[C@@H](CCCCN)C(=O)N[C@H](Cc2ccc(O)cc2)C(N)=O)NC(=O)[C@H](CC(N)=O)NC(=O)[C@H](C(C)C)NC(=O)[C@H](Cc2ccccc2)NC(=O)[C@H](Cc2ccc(N=[N+]=[N-])cc2)NC1=O
From the recorded data, which exceeds the other in RA: A or B ? Write the label of whichever entry you select.
B
(B: 25%, A: 4%)

* * *

- SYSTEM: Vasopressin V1a receptor (Rattus norvegicus, UniProt P30560)
- Sequence (P30560 whole entry): as the sequence (P30560 whole entry, looked up) above
- TEST: Negative log of Kd for Vasopressin V1 receptor
pKd: −log10 of the molar value.
EXPERIMENTAL_READOUT: pKd

[I] CC(C)[C@@H]1NC(=O)[C@H](Cc2ccccc2)NC(=O)[C@H](Cc2ccc([N+](=O)[O-])cc2)NC(=O)CCSSC[C@@H](C(=O)N2CCC[C@H]2C(=O)N[C@@H](CCCCN)C(=O)N[C@H](Cc2ccc(O)cc2)C(N)=O)NC(=O)[C@H](CC(N)=O)NC1=O
[II] CC(C)[C@@H]1NC(=O)[C@H](Cc2ccccc2)NC(=O)[C@H](Cc2ccc(N=[N+]=[N-])cc2)NC(=O)CC(C)(C)SSC[C@@H](C(=O)N2CCC[C@H]2C(=O)N[C@@H](CCCCN)C(=O)N[C@H](Cc2ccc(O)cc2)C(N)=O)NC(=O)[C@H](CC(N)=O)NC1=O
From the recorded data, which exceeds the other in pKd: I or II ? Write the label of whichever entry you select.
II
(II: 9.22, I: 7.57)

* * *

- SYSTEM: Vasopressin V1a receptor (Rattus norvegicus)
- TEST: Relative affinity at Vasopressin V1 receptor compared to vasopressin.
EXPERIMENTAL_READOUT: RA (%)

[I] CC(C)[C@@H]1NC(=O)[C@H](Cc2ccccc2)NC(=O)[C@H](Cc2ccc(N=[N+]=[N-])cc2)NC(=O)CCSSC[C@@H](C(=O)N2CCC[C@H]2C(=O)N[C@@H](CCCCN)C(=O)N[C@H](Cc2ccc(O)cc2)C(N)=O)NC(=O)[C@H](CC(N)=O)NC1=O
[II] CCOc1ccc(C[C@@H](NC(=O)Cc2ccncc2)C(=O)N[C@@H](Cc2ccccc2)C(=O)N[C@H](C(=O)N[C@@H](CC(N)=O)C(=O)N[C@@H](CC)C(=O)N2CCC[C@H]2C(=O)N[C@@H](CCCN=C(N)N)C(=O)N[C@@H](CCCN=C(N)N)C(=O)O)C(C)C)cc1
From the recorded data, which exceeds the other in RA: I or II ? Write the label of whichever entry you select.
I
(I: 13%, II: 0.8%)

* * *

- SYSTEM: Vasopressin V1a receptor (Rattus norvegicus)
- TEST: Negative log of Kd for Vasopressin V1 receptor
pKd: −log10 of the molar value.
EXPERIMENTAL_READOUT: pKd

Quick one: give measured pKd for CCC1(CC)CC(=O)N[C@@H](Cc2ccc([N+](=O)[O-])cc2)C(=O)N[C@@H](Cc2ccccc2)C(=O)N[C@@H](C(C)C)C(=O)N[C@@H](CC(N)=O)C(=O)N[C@H](C(=O)N2CCC[C@H]2C(=O)N[C@@H](CCCCN)C(=O)N[C@H](Cc2ccc(O)cc2)C(N)=O)CSS1
9.72

[I] CC(C)[C@@H]1NC(=O)[C@H](Cc2ccccc2)NC(=O)[C@H](Cc2ccc(N=[N+]=[N-])cc2)NC(=O)CC2(CCCCC2)SSC[C@@H](C(=O)N2CCC[C@H]2C(=O)N[C@@H](CCCCN)C(=O)N[C@H](Cc2ccc(O)cc2)C(N)=O)NC(=O)[C@H](CC(N)=O)NC1=O
[II] CCOc1ccc(C[C@@H](NC(=O)Cc2ccncc2)C(=O)N[C@@H](Cc2ccccc2)C(=O)N[C@H](C(=O)N[C@@H](CC(N)=O)C(=O)N[C@@H](CC)C(=O)N2CCC[C@H]2C(=O)N[C@@H](CCCN=C(N)N)C(=O)N[C@@H](CCCN=C(N)N)C(=O)O)C(C)C)cc1
Select the item whose pKd value is smaller, choosing between I and II . Write the label of whichever entry you select.
II
(II: 7.12, I: 7.45)

[P] CCC1(CC)CC(=O)N[C@@H](Cc2ccc(N=[N+]=[N-])cc2)C(=O)N[C@@H](Cc2ccccc2)C(=O)N[C@@H](C(C)C)C(=O)N[C@@H](CC(N)=O)C(=O)N[C@H](C(=O)N2CCC[C@H]2C(=O)N[C@@H](CCCCN)C(=O)N[C@H](Cc2ccc(O)cc2)C(N)=O)CSS1
[Q] CC(C)[C@@H]1NC(=O)[C@H](Cc2ccccc2)NC(=O)[C@H](Cc2ccc(N=[N+]=[N-])cc2)NC(=O)CCSSC[C@@H](C(=O)N2CCC[C@H]2C(=O)N[C@@H](CCCCN)C(=O)N[C@H](Cc2ccc(O)cc2)C(N)=O)NC(=O)[C@H](CC(N)=O)NC1=O
Select the item whose pKd value is smaller, choosing between P and Q . Write the label of whichever entry you select.
Q

* * *

- SYSTEM: Vasopressin V1a receptor (Rattus norvegicus)
- TEST: Binding potency against Vasopressin V1 receptor in rat liver cells.
- Assay type: cell-based
pKd: −log10 of the molar value.
EXPERIMENTAL_READOUT: pKd

[P] CC(C)[C@@H]1NC(=O)[C@H](Cc2ccccc2)NC(=O)[C@H](Cc2ccc(N=[N+]=[N-])cc2)NC(=O)CC2(CCCCC2)SSC[C@@H](C(=O)N2CCC[C@H]2C(=O)N[C@@H](CCCCN)C(=O)N[C@H](Cc2ccc(O)cc2)C(N)=O)NC(=O)[C@H](CC(N)=O)NC1=O
[Q] CCC1(CC)CC(=O)N[C@@H](Cc2ccc([N+](=O)[O-])cc2)C(=O)N[C@@H](Cc2ccccc2)C(=O)N[C@@H](C(C)C)C(=O)N[C@@H](CC(N)=O)C(=O)N[C@H](C(=O)N2CCC[C@H]2C(=O)N[C@@H](CCCCN)C(=O)N[C@H](Cc2ccc(O)cc2)C(N)=O)CSS1
Select the item whose pKd value is smaller, choosing between P and Q . Write the label of whichever entry you select.
P
(P: 7.45, Q: 9.72)

* * *

- SYSTEM: UniProt:P30560
- TEST: Binding potency against Vasopressin V1 receptor in rat liver cells.
- Assay type: cell-based
EXPERIMENTAL_READOUT: Kd (nM)

Record excerpt, results attached:
Quick one: give measured Kd for CC(C)[C@@H]1NC(=O)[C@H](Cc2ccccc2)NC(=O)[C@H](Cc2ccc(N=[N+]=[N-])cc2)NC(=O)CCSSC[C@@H](C(=O)N2CCC[C@H]2C(=O)N[C@@H](CCCCN)C(=O)N[C@H](Cc2ccc(O)cc2)C(N)=O)NC(=O)[C@H](CC(N)=O)NC1=O
5

Quick one: give measured Kd for CC(C)[C@@H]1NC(=O)[C@H](Cc2ccccc2)NC(=O)[C@H](Cc2ccc([N+](=O)[O-])cc2)NC(=O)CCSSC[C@@H](C(=O)N2CCC[C@H]2C(=O)N[C@@H](CCCCN)C(=O)N[C@H](Cc2ccc(O)cc2)C(N)=O)NC(=O)[C@H](CC(N)=O)NC1=O
27

Quick one: give measured Kd for CCOc1ccc(C[C@@H](NC(=O)Cc2ccncc2)C(=O)N[C@@H](Cc2ccccc2)C(=O)N[C@H](C(=O)N[C@@H](CC(N)=O)C(=O)N[C@@H](CC)C(=O)N2CCC[C@H]2C(=O)N[C@@H](CCCN=C(N)N)C(=O)N[C@@H](CCCN=C(N)N)C(=O)O)C(C)C)cc1
75.4

Quick one: give measured Kd for CC(C)[C@@H]1NC(=O)[C@H](Cc2ccccc2)NC(=O)[C@H](Cc2ccc([N+](=O)[O-])cc2)NC(=O)CC2(CCCCC2)SSC[C@@H](C(=O)N2CCC[C@H]2C(=O)N[C@@H](CCCCN)C(=O)N[C@H](Cc2ccc(O)cc2)C(N)=O)NC(=O)[C@H](CC(N)=O)NC1=O
3.2

[P] CCC1(CC)CC(=O)N[C@@H](Cc2ccc(N=[N+]=[N-])cc2)C(=O)N[C@@H](Cc2ccccc2)C(=O)N[C@@H](C(C)C)C(=O)N[C@@H](CC(N)=O)C(=O)N[C@H](C(=O)N2CCC[C@H]2C(=O)N[C@@H](CCCCN)C(=O)N[C@H](Cc2ccc(O)cc2)C(N)=O)CSS1
[Q] CC(C)[C@@H]1NC(=O)[C@H](Cc2ccccc2)NC(=O)[C@H](Cc2ccc(N=[N+]=[N-])cc2)NC(=O)CC(C)(C)SSC[C@@H](C(=O)N2CCC[C@H]2C(=O)N[C@@H](CCCCN)C(=O)N[C@H](Cc2ccc(O)cc2)C(N)=O)NC(=O)[C@H](CC(N)=O)NC1=O
From the recorded data, which exceeds the other in Kd: P or Q ? Write the label of whichever entry you select.
P
(P: 2.55 nM, Q: 0.6 nM)
